test name: log P by HPLC on a reversed-phase column (C 18), EEC Directive 79/831 Annex V.A8
Assay type: physicochemical
cond: Table 1; HPLC C 18, 40° C., 0.1% aqueous formic acid and acetonitrile; several values = mixture of 2 or more isomers
# logP listing for each entry below

# molecule, logP
data = [
    ("Cn1cc(C(=O)N(Cc2cc(Cl)ccc2C2=CCCCCC2)C2CC2)c(C(F)F)n1", 4.87),
    ("Cn1cc(C(=O)N(Cc2ccccc2C2=CCCC2)C2CC2)c(C(F)F)c1", 4.13),
    ("CC1CC=C(c2ccc(F)cc2CN(C(=O)c2c(C(F)F)nn(C)c2Cl)C2CC2)CC1 (racemic)", 5.14),
]
